Test description: Toxicokinetic evaluation of 14-day repeated intragastric administration to SD rats
Type: in vivo
Reported conditions: both sexes, SD, rat, plasma, po, 5 mg/kg, repeated intragastric 5 mg/kg, Day 7, read-out: Clearance CL/F
Protocol: With SD rats as test animals, the plasma concentrations of the test compounds and the concentrations of the original forms of the compounds in the administration solutions were measured by LC/MS/MS at different time points after intragastric administration. The toxicokinetic performance of the compound disclosed herein was studied in SD rats and its toxicokinetic profile was evaluated. […]
Experimental endpoint: CL/F at 7 day (mL/min/kg)

{"columns": ["Compound", "Experimental endpoint", "Value"],
 "data": [
  ["Cc1ccc(F)c([C@H](C)Nc2nc(=O)n(C3CCOCC3)c(=O)[nH]2)c1 [Example 16]", "CL/F at 7 day", 2.99]
]}
